TGT: human RIOK2 protein (Homo sapiens)
Construct: glutathione S-transferase is fused to N-terminal of a full-length human RIOK2 protein; GST (glutathione S-transferase) (N); purchased CarnaBio, Inc; host or cells: baculovirus-Sf21 cell expression system
Sequence (Q9BVS4 whole entry, the tested form may be a part): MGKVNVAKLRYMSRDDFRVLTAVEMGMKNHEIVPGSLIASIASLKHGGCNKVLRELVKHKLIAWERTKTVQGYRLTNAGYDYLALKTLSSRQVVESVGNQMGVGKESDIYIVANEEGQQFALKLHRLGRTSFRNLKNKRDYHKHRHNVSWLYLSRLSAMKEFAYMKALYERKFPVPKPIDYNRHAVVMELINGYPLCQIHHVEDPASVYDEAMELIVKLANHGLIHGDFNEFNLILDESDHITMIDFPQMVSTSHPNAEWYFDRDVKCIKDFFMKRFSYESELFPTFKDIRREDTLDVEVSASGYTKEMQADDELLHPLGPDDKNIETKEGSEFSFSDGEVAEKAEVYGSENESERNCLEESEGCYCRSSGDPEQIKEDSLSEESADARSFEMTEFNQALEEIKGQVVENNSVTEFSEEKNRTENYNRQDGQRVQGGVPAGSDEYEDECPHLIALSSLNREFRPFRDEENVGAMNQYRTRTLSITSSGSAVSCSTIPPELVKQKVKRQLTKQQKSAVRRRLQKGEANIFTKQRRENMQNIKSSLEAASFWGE
METHOD_NOTES: RIOK2 autophosphorylation ELISA (Test Example 4)
Format: biochemical
TEST_CONDITIONS: read-out: Inhibitory activity at 10 μM (%)
Where a name gives a salt, the structure may show the parent alone.
MEASUREMENT_NAME: inhibition at 10 µM (%)
Give a bare numeral; the unit % is implied.

For orientation, consider the following solved cases.
COMPOUND	inhibition at 10 µM, %
CCN(CC)CCNC(=O)c1c(C)[nH]c(/C=C2\C(=O)Nc3ccc(-c4cnn(-c5ccncn5)c4)cc32)c1C [Example 69]	109
Cc1[nH]c(/C=C2\C(=O)Nc3ccc(-c4cnn(-c5ccccc5)c4)cc32)c(C)c1C(=O)N[C@H]1CCCNC1 [Example 88, hydrochloride]	122

# ---- query compound ----
Query string: Lab request: please report inhibition at 10 µM under test system human RIOK2 protein (Homo sapiens) for CCN(CC)CCNC(=O)c1c(C)[nH]c(/C=C2\C(=O)Nc3ccc(-c4cnn(-c5ccc(S(N)(=O)=O)cc5)c4)cc32)c1C [Example 74]
Result string: 71

---

inhibition at 10 µM for assorted compounds
TGT: human RIOK2 protein (Homo sapiens)
Construct: glutathione S-transferase is fused to N-terminal of a full-length human RIOK2 protein; GST (glutathione S-transferase) (N); purchased CarnaBio, Inc; host or cells: baculovirus-Sf21 cell expression system
METHOD_NOTES: RIOK2 autophosphorylation ELISA (Test Example 4)
Assay type: biochemical
TEST_CONDITIONS: read-out: Inhibitory activity at 10 μM (%)
Protocol: A protein in which glutathione S-transferase is fused to N-terminal of a full-length human RIOK2 protein was used as a recombinant human RIOK2 protein. […] The following day, the supernatant was removed, and the wells were washed three times with ELISA buffer (20 mM Tris-HCl, 150 mM NaCl, 0.2% Tween-20, 0.1% BSA). […] An absorptiometric level of 450 nm was measured in each well using ARVO SX (manufactured by Wallac).
Please reply with the bare figure in % and do not write the unit itself.

Guide cases for inhibition at 10 µM, answers given:
COMPOUND	inhibition at 10 µM (%)
CCN(CC)CCNC(=O)c1c(C)[nH]c(/C=C2\C(=O)Nc3ccc(-c4cnn(-c5ncccn5)c4)cc32)c1C [Example 70]	112
CCN(CC)CCNC(=O)c1c(C)[nH]c(/C=C2\C(=O)Nc3ccc(-c4cnn(-c5ccccc5Cl)c4)cc32)c1C [Example 71]	99
Cc1[nH]c(/C=C2\C(=O)Nc3ccc(-c4cnn(-c5ccccc5)c4)cc32)c(C)c1C(=O)N[C@@H]1CCCNC1 [Example 89]	130
Cc1[nH]c(/C=C2\C(=O)Nc3ccc(-c4nnc(-c5ccccc5)s4)cc32)c(C)c1C(=O)N1CCN(C)CC1 [Example 2]	19
Cc1[nH]c(/C=C2\C(=O)Nc3ccc(-c4cnn(-c5ccccc5)c4)cc32)c(C)c1C(=O)NC1CNCC(c2ccccc2)C1 (stereo not drawn) [Example 96]	69

Switching to the query record.
Query string: Given the entry CCN(CC)CCNC(=O)c1c(C)[nH]c(/C=C2\C(=O)Nc3ccc(-c4ccnn4-c4ccc(C(F)(F)F)cc4)cc32)c1C [Example 60] , what inhibition at 10 µM was observed with human RIOK2 protein (Homo sapiens)?
Result string: 68

The reported measurements were obtained from patent US20190241569A1.
